B1: POU domain, class 3, transcription factor 4, residues 280 to 335; numbered along this chain, P49335 (parent)
chain: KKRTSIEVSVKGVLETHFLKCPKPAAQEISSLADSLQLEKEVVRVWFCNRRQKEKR

Variants of: B1
TEST_DESCRIPTION: abundance fitness (aPCA) (normalised: wild type 0, dead -1); higher = more abundant; growth selection in yeast, the domain comes from the species named
PARTICULARS: Homo sapiens
# reported abundance fitness; entries follow
ENDPOINT_LABEL: abundance fitness

* T16Y | -0.306
* E15S | -0.845
* V45E | 0.193
* G12D | 0.288
* K20H | -0.693
* C21V | -0.781
* K53P | -0.884
* W46P | -0.953
* R51N | -0.628
* K40C | -0.154
* L19R | -0.236
* K55V | -0.069
* K53E | 0.194
* F47A | -0.65
* E41H | -0.161
* E28M | -0.355
* S31M | 0.096
* K55P | -0.764
* F18Q | -1.16
* A25R | -0.088
* V13Q | 0.205

Where do these numbers come from? They come from the Human Domainome abundance scans (Beltran et al. 2025).
